Each recorded value in this set is attributed to patent US20160002331A1.

target: full-length human Notch1 expressed on the cell surface (human, UniProt P46531 19-2555); assay: cell-based or functional assay
Sequence (P46531 19-2555): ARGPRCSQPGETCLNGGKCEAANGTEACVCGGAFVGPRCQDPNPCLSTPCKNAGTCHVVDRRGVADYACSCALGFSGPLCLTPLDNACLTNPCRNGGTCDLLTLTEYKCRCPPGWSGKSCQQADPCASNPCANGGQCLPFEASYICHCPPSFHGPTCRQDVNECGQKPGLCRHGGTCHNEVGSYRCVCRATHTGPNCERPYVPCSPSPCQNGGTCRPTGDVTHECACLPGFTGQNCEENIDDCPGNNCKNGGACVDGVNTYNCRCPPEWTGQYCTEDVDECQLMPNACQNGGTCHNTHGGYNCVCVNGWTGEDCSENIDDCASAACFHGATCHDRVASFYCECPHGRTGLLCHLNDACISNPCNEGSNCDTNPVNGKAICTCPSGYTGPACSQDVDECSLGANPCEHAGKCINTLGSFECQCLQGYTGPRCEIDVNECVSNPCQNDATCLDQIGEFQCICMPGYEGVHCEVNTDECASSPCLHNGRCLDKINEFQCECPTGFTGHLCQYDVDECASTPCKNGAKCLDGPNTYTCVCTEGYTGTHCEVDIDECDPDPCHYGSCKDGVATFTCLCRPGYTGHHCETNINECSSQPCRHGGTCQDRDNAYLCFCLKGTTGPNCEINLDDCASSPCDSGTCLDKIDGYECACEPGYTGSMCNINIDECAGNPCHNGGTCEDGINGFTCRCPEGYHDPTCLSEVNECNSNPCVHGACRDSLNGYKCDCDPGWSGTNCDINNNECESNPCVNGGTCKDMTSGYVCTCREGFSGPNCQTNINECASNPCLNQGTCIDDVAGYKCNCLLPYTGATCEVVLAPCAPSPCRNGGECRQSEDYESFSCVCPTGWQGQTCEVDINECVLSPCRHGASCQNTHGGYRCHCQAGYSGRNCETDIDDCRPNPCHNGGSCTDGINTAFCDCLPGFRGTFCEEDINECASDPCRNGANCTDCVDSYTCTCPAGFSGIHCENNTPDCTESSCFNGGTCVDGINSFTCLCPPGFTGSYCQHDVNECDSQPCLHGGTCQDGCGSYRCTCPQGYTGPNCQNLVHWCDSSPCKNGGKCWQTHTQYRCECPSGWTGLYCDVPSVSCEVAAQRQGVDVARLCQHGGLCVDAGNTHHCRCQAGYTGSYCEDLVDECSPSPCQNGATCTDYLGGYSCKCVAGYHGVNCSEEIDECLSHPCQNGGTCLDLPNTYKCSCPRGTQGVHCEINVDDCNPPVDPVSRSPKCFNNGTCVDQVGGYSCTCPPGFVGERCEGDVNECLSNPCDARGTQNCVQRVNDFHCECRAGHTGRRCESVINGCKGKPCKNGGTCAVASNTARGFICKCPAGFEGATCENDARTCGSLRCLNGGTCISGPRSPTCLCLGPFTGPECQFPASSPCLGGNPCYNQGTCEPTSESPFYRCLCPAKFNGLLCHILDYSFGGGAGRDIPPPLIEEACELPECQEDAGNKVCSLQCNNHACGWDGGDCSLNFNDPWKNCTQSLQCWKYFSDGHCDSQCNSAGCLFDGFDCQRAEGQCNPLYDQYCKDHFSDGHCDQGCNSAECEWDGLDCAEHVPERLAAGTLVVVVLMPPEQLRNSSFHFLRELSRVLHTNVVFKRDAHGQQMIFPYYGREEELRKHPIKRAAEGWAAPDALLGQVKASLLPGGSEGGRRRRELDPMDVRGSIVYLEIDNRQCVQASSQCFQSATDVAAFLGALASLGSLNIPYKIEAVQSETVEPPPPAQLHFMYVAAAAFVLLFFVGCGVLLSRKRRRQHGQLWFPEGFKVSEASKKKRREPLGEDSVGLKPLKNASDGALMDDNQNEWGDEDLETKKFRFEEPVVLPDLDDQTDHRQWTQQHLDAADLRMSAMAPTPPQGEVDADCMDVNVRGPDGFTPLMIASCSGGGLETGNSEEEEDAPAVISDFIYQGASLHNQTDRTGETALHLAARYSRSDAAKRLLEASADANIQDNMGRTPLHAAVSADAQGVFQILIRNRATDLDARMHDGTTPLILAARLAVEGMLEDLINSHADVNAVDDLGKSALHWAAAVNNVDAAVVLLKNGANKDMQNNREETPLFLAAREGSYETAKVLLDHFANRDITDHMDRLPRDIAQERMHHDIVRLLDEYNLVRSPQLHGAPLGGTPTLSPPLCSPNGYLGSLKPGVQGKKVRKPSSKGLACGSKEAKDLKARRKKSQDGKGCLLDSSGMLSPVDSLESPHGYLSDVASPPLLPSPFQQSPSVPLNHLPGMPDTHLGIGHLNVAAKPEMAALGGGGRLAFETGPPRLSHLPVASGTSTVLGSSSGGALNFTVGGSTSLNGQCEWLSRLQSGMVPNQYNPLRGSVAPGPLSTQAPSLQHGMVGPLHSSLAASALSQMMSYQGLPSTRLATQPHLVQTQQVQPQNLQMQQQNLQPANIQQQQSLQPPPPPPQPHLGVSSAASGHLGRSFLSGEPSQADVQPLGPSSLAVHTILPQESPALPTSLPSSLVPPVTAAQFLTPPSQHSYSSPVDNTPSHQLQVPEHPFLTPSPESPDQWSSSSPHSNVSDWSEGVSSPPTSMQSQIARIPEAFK
Records here are stratified by IC50, human Notch1 reporter gene co-culture assay (DLL4-HEK293); strata: bin 0 = under 0.5 nM, bin 1 = from 0.5 nM up to 0.7 nM, bin 2 = 0.7 nM and over

Binder	Assigned Class
humanized 438 VH1.1/VL1.9 (antibody, human IgG1, V domains shown) VH: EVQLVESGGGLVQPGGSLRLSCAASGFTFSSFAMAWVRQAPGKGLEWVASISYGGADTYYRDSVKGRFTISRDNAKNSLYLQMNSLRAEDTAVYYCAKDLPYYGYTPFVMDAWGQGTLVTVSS VL: DIMLTQSPSSLSASVGDRVTITCRASQRINTDLHWYQQKPGKAPKVLIKFASQTISGVPSRFSGSGSGTDFTLTISSLQPEDFATYYCQQSNSWPYTFGQGTKLEIK	bin 0

Exercise: Band assignment needed for humanized 438 VH1.1/VL1.1 (antibody, human IgG1, V domains shown) VH: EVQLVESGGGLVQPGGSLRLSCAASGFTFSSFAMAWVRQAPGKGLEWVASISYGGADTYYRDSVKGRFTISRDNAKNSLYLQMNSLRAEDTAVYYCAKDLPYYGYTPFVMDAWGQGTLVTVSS VL: DIQLTQSPSSLSASVGDRVTITCRASQRINTDLHWYQQKPGKAPKVLIKFASQTISGVPSRFSGSGSGTDFTLTISSLQPEDFATYYCQQSNSWPYTFGQGTKLEIK please.
Solution: bin 1

Exercise: Band assignment needed for humanized 438 VH1.1/VL1.0 (antibody, human IgG1, V domains shown) VH: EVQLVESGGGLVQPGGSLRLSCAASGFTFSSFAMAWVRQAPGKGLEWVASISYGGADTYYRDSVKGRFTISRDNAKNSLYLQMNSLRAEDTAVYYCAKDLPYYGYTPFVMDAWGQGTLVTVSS VL: DIQMTQSPSSLSASVGDRVTITCRASQRINTDLHWYQQKPGKAPKLLIYFASQTISGVPSRFSGSGSGTDFTLTISSLQPEDFATYYCQQSNSWPYTFGQGTKLEIK please.
Solution: bin 0

Exercise: Band assignment needed for humanized 438 VH1.1/VL1.5 (antibody, human IgG1, V domains shown) VH: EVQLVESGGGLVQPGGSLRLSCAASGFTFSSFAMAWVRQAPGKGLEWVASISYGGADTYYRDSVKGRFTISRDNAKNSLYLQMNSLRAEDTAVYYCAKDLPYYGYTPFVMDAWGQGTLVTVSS VL: DIQMTQSPSSLSASVGDRVTITCRASQRINTDLHWYQQKPGKAPKLLIKFASQTISGVPSRFSGSGSGTDFTLTISSLQPEDFATYYCQQSNSWPYTFGQGTKLEIK please.
Solution: bin 0

Exercise: Band assignment needed for humanized 438 VH1.0/VL1.1 (antibody, human IgG1, V domains shown) VH: EVQLVESGGGLVQPGGSLRLSCAASGFTFSSFAMAWVRQAPGKGLEWVASISYGGADTYYRDSVKGRFTISRDNAKNSLYLQMNSLRAEDTAVYYCARDLPYYGYTPFVMDAWGQGTLVTVSS VL: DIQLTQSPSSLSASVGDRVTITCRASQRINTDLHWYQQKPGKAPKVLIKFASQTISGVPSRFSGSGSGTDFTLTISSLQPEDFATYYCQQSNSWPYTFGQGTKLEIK please.
Solution: bin 2

Exercise: Band assignment needed for humanized 438 VH1.1/VL1.8 (antibody, human IgG1, kappa, V domains shown, full chains (VH1.1)-hIgG1-3M and (VL1.8)-hkappa) VH: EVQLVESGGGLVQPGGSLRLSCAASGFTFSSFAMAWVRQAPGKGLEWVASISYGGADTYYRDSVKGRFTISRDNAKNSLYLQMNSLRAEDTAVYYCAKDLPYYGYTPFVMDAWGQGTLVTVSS VL: DIQMTQSPSSLSASVGDRVTITCRASQRINTDLHWYQQKPGKAPKVLIKFASQTISGVPSRFSGSGSGTDFTLTISSLQPEDFATYYCQQSNSWPYTFGQGTKLEIKR please.
Solution: bin 0

Exercise: Band assignment needed for rat 438-hIgG1 (antibody, V domains shown, also called r438-hIgG) VH: AVQLVESGGGLVQPGRSLKLSCTASGFTFSSFAMAWVRQAPTKGLEWVASISYGGADTYYRDSVKGRFTISRDNAKSSLYLQMDSLRSEDTSTYYCAKDLPYYGYTPFVMDAWGQGTSVTVSS VL: DIMLTQSPPTLSVTPGETISLSCRASQRINTDLHWYQQKPNESPRVLIKFASQTISGVPSRFSGSGSGTDFTLNINRVEPEDFSVYYCQQSNSWPYTFGAGTKLELK please.
Solution: bin 1

Exercise: Band assignment needed for humanized 438 VH1.1/VL1.3 (antibody, human IgG1, V domains shown) VH: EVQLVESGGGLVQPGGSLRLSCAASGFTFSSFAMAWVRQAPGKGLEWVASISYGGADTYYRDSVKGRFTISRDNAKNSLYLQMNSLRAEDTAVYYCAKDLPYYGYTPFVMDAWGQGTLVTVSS VL: DIQLTQSPSSLSASVGDRVTITCRASQRINTDLHWYQQKPGKAPKLLIYFASQTISGVPSRFSGSGSGTDFTLTISSLQPEDFATYYCQQSNSWPYTFGQGTKLEIK please.
Solution: bin 0

Exercise: Band assignment needed for humanized 438 VH1.0/VL1.8 (antibody, human IgG1, V domains shown) VH: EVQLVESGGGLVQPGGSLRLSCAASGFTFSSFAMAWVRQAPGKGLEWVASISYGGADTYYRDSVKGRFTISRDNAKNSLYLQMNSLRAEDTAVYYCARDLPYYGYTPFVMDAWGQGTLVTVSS VL: DIQMTQSPSSLSASVGDRVTITCRASQRINTDLHWYQQKPGKAPKVLIKFASQTISGVPSRFSGSGSGTDFTLTISSLQPEDFATYYCQQSNSWPYTFGQGTKLEIK please.
Solution: bin 2
